The measurements presented in this section are drawn from the kinase profiling compilation of Christmann-Franck et al. (2016).

Target: UniProt P37023
Sequence (P37023 whole entry, looked up): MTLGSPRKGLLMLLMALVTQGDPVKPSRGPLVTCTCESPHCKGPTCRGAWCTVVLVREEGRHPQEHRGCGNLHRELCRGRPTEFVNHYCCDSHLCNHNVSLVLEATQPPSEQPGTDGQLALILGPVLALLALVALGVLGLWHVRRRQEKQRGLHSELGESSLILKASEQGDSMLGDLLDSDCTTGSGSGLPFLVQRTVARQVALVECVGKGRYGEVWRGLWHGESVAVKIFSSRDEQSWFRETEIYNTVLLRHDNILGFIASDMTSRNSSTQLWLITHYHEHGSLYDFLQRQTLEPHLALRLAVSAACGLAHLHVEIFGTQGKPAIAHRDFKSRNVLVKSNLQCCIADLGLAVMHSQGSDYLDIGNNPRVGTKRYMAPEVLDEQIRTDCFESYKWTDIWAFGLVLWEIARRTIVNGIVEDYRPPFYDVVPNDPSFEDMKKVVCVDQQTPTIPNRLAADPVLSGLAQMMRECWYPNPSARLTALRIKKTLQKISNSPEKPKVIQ
Assay: KINOMEscan competition binding
Settings: compound 10.0 µM
experimental_readout: kinase still bound, per cent of control

Input line: Quick one: give measured kinase still bound, per cent of control for O=C1Nc2ccccc2/C1=C/c1ccc[nH]1
Output line: no effect (inactive)

Input line: Supply measured kinase still bound, per cent of control of c1ccc(-c2n[nH]cc2-c2ccnc3ccccc23)nc1 in your reply.
Output line: no effect (inactive)

Input line: // fetch kinase still bound, per cent of control given entry CCS(=O)(=O)Nc1ccc2c(c1)[C@H](/C(=N/c1ccc(CN3CCCCC3)cc1)c1ccccc1)C(=O)N2
Output line: 0%

Input line: Supply kinase still bound, per cent of control value. Item: Cc1ccc(C(=O)Nc2cccc(C(C)(C)C)c2)cc1-c1ccc(C(=O)NCC2CC2)cc1
Output line: no effect (inactive)

Input line: For CC(=O)c1c(-c2ccncc2)[nH]c(-c2ccncc2)c1C , write its kinase still bound, per cent of control.
Output line: no effect (inactive)

Input line: Give the value of kinase still bound, per cent of control reported for the following: NC(=O)c1ccc(Nc2cc(-c3ccc(F)cc3)[nH]n2)cc1
Output line: no effect (inactive)

Input line: Quick one: give measured kinase still bound, per cent of control for Cc1ccc(NC(=O)c2cccc(N3CCCCC3)c2)cc1-c1ccc(C(=O)NCC2CC2)cc1
Output line: no effect (inactive)

Input line: Identify the reported kinase still bound, per cent of control for the following entry. Cc1cc(Nc2cc(N3CCN(C)CC3)nc(Sc3ccc(NC(=O)C4CC4)cc3)n2)[nH]n1
Output line: no effect (inactive)

Input line: Supply reported kinase still bound, per cent of control belonging to this compound: CN(C)c1ccc(-c2cc3ncccc3c(NCCCCN)n2)cc1
Output line: no effect (inactive)

Input line: // fetch kinase still bound, per cent of control given entry NC(=O)c1ccc(-c2cc(C(N)=O)c(N)c(-c3ccc(S(N)(=O)=O)cc3)c2)cc1
Output line: no effect (inactive)

Note: attention shifts to another entry.
Input line: Using known records, supply kinase still bound, per cent of control for NC(=O)Nc1sc(-c2ccc(F)cc2)cc1C(N)=O
Output line: no effect (inactive)

###

Target: EPHA3 (human) (UniProt P29320)
Sequence (P29320 whole entry, looked up): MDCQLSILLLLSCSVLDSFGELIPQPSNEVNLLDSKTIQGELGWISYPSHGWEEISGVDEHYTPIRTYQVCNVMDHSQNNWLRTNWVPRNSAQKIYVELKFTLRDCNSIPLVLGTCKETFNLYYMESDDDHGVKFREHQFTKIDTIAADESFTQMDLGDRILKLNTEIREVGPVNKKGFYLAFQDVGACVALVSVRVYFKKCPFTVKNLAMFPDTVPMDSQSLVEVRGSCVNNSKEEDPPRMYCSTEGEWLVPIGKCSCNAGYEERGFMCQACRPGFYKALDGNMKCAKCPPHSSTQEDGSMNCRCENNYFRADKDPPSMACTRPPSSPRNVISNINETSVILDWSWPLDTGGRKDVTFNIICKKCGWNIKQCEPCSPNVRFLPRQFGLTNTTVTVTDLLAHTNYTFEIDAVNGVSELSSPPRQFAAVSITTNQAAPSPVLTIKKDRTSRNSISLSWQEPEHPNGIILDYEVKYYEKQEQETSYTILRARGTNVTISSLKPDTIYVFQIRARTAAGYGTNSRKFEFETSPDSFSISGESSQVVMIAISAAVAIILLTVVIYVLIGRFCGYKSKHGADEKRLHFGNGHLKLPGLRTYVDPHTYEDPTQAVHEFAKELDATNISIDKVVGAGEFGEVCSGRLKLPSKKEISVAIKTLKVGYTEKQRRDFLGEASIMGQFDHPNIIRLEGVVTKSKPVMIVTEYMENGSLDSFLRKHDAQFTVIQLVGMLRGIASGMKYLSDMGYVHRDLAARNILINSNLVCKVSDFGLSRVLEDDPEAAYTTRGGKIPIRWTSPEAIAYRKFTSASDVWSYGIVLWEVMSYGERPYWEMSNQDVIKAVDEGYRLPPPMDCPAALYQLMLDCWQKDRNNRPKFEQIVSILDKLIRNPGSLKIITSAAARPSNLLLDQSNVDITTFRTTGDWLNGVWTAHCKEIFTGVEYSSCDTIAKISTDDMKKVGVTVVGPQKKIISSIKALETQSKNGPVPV
Experiment: KINOMEscan competition binding
Conditions: compound 10.0 µM
experimental_readout: kinase still bound, per cent of control

Study these solved cases before continuing.
Input line: Report measured kinase still bound, per cent of control; entry is O=C1Nc2ccccc2/C1=C/c1ccc[nH]1
Output line: no effect (inactive)

Input line: Read off the recorded kinase still bound, per cent of control for Cc1ccc(C(=O)Nc2cccc(C(C)(C)C)c2)cc1-c1ccc(C(=O)NCC2CC2)cc1
Output line: 0%

Input line: Look up and report measured kinase still bound, per cent of control for this entry: N#Cc1ccc(-c2cnc3[nH]cc(NC(=O)c4cccnc4)c3c2)cc1
Output line: no effect (inactive)

Input line: // Input: Nc1ncnc2c1c(-c1cccc(O)c1)cn2C1CCNCC1 . Output its kinase still bound, per cent of control only.
Output line: no effect (inactive)

Input line: For the molecule NC(=O)c1ccc(-c2cc(C(N)=O)c(N)c(-c3ccc(S(N)(=O)=O)cc3)c2)cc1 , report kinase still bound, per cent of control.
Output line: no effect (inactive)

Input line: Supply recorded kinase still bound, per cent of control for NC(=O)c1ccc(Nc2cc(-c3ccc(F)cc3)[nH]n2)cc1 here.
Output line: no effect (inactive)

Now for the molecule whose kinase still bound, per cent of control we want.
Input line: Give the reported kinase still bound, per cent of control for this molecule. CCS(=O)(=O)Nc1ccc2c(c1)[C@H](/C(=N/c1ccc(CN3CCCCC3)cc1)c1ccccc1)C(=O)N2
Output line: 0%
